experimental_system: BRM (Homo sapiens, UniProt P51531)
Construct: made in house; host or cells: High Five insect cells
Sequence (P51531 whole entry): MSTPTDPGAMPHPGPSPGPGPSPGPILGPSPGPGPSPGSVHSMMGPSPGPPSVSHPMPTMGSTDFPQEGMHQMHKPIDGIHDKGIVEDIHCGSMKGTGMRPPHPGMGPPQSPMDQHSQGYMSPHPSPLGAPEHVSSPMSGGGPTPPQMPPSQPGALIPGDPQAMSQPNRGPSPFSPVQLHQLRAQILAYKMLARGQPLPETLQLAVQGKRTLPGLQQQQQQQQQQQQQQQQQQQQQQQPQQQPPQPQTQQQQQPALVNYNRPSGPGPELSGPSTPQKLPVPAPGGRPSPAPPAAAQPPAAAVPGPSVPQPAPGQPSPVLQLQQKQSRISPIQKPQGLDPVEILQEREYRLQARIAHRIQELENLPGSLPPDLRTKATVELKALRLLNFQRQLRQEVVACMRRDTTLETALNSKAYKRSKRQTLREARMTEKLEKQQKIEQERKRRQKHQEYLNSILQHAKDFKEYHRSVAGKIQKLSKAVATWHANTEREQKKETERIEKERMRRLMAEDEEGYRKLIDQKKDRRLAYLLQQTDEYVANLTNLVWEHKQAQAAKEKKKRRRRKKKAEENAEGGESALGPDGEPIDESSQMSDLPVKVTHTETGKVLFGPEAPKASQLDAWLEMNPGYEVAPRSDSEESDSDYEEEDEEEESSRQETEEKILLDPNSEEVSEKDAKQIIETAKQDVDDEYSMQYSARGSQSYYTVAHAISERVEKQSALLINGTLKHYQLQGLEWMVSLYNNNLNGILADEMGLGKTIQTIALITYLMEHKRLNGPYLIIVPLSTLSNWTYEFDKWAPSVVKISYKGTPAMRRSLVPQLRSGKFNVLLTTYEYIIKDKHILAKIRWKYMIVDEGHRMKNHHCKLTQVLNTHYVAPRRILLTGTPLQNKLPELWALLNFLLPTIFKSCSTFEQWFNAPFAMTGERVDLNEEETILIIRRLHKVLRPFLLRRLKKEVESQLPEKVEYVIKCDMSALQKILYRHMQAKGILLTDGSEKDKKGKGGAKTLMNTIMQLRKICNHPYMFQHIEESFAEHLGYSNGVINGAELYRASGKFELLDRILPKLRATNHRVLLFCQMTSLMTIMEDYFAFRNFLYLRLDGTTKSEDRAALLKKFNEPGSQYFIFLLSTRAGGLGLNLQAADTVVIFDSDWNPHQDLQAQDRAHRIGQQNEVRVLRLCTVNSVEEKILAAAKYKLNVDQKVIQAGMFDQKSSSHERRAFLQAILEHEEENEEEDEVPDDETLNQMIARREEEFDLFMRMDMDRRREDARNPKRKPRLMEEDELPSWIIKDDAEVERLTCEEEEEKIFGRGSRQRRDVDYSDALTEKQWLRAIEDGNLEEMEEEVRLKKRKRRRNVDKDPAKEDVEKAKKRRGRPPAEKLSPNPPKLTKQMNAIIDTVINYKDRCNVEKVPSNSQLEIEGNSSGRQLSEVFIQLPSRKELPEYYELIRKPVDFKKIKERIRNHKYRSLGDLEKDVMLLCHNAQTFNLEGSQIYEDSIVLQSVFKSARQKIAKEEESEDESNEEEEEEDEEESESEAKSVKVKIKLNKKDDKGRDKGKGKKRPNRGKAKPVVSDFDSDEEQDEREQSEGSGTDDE
assay_procedure: ATPase catalytic activity of BRM, ADP-Glo in vitro biochemical assay
condition_info: selectivity ratio BRG1 IC50 / BRM IC50
Listing: Ratio* (BRG1 IC50 (μM) divided by BRM IC50 (μM)) of selected molecules

// below: answered molecules
- smiles_entry: "O=C(NCc1cc2nc(-c3ccccc3Cl)ccc2cn1)c1ccc2c(c1)S(=O)(=O)CCOC2"
  experimental_system: "BRM (Homo sapiens, UniProt P51531)"
  result: 6.16
- smiles_entry: "Cn1cnc2c(-c3ccc4cnc(CNC(=O)c5ccc6c(c5)S(=O)(=O)CCOC6)cc4n3)cccc21"
  experimental_system: "BRM (Homo sapiens, UniProt P51531)"
  result: 8.09
- smiles_entry: "O=C(NCc1cc2nc(-c3ccc4c(n3)OCC4)ccc2cn1)c1ccc2c(c1)S(=O)(=O)CCOC2"
  experimental_system: "BRM (Homo sapiens, UniProt P51531)"
  result: 4.81
- smiles_entry: "C[C@@H]1CN(c2cccc(-c3ccc4cnc(CNC(=O)c5ccc6c(c5)S(=O)(=O)CCCC6)cc4n3)n2)C[C@H](C)O1"
  experimental_system: "BRM (Homo sapiens, UniProt P51531)"
  result: 3.52
- smiles_entry: "O=C(NCc1cc2nc(-c3cccc(OC(F)F)c3)ccc2cn1)c1ccc2c(c1)S(=O)(=O)CCOC2"
  experimental_system: "BRM (Homo sapiens, UniProt P51531)"
  result: 25.91
- smiles_entry: "Cc1ncc(C(=O)NCc2cc3nc(-c4cncc(C5CC5)n4)ccc3cn2)cc1S(C)(=O)=O"
  experimental_system: "BRM (Homo sapiens, UniProt P51531)"
  result: 9.90

Item O=C(NCc1cc2nc(-c3cn(C4COC4)nc3C3CC3)ccc2cn1)c1ccc2c(c1)S(=O)(=O)CCOC2 has what recorded Ratio* (BRG1 IC50 (μM) divided by BRM IC50 (μM))?
12.69

Could you share which Ratio* (BRG1 IC50 (μM) divided by BRM IC50 (μM)) value was measured for C[C@@H]1CN(c2cccc(-c3ccc4cnc(CNC(=O)c5ccc(CC(F)F)c(S(C)(=O)=O)c5)cc4n3)n2)C[C@H](C)O1 ?
4.70

Quick one: Ratio* (BRG1 IC50 (μM) divided by BRM IC50 (μM)) for CO[C@H]1CCN(c2cccc(-c3ccc4cnc(CNC(=O)c5ccc6c(c5)S(=O)(=O)CCOC6)cc4n3)n2)C1 ?
9.11

Return reported Ratio* (BRG1 IC50 (μM) divided by BRM IC50 (μM)); argument: CC(C)S(=O)(=O)c1cccc(C(=O)NCc2cc3nc(-c4cncc(C5CC5)n4)ccc3cn2)c1
15.84

What value of Ratio* (BRG1 IC50 (μM) divided by BRM IC50 (μM)) has been recorded for this entry: COCCN(C)c1cccc(-c2ccc3cnc(CNC(=O)c4cc(F)c5c(c4)S(=O)(=O)CCOC5)cc3n2)n1
11.83

# lookup: Ratio* (BRG1 IC50 (μM) divided by BRM IC50 (μM)) of C[C@@H]1CN(c2cccc(-c3ccc4cnc(CNC(=O)c5cc(F)c(C(F)F)c(S(C)(=O)=O)c5)cc4n3)n2)C[C@H](C)O1
25.22

Ratio* (BRG1 IC50 (μM) divided by BRM IC50 (μM)) lookup needed for CN(c1cccc(-c2ccc3cnc(CNC(=O)c4ccc5c(c4)S(=O)(=O)CCOC5)cc3n2)n1)[C@H]1CCOC1 , thanks.
7.01

Given the molecule O=C(NCc1cc2nc(-c3cccc(OC(F)F)n3)ccc2cn1)c1ccc2c(c1)S(=O)(=O)CCOC2 , what is its reported Ratio* (BRG1 IC50 (μM) divided by BRM IC50 (μM))?
25.69

Values from patent US20230416248A1
